Target: HIV-1 Env of isolate MGRM-G-014 (subtype G), on pseudovirus (HIV-1)
Assay: cell-based or functional assay
Listed next: entries and their corresponding IC50 (µg/mL), neutralization of pseudovirus.
endpoint: IC50 (µg/mL), neutralization of pseudovirus

- binder: "PGT-136 (antibody, V domains shown) VH: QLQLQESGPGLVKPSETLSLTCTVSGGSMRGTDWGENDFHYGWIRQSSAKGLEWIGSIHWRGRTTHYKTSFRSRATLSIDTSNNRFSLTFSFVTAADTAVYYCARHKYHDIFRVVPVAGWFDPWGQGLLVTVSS VL: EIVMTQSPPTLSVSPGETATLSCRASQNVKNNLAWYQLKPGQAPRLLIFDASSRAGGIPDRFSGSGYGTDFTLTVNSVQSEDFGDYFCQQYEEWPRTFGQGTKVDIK"
  measuredResult: "> 50 µg/mL"
- binder: "PGT-123 (antibody, V domains shown) VH: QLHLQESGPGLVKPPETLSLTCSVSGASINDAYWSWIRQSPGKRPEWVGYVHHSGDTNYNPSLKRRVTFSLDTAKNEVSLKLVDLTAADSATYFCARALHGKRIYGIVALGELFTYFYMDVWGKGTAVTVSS VL: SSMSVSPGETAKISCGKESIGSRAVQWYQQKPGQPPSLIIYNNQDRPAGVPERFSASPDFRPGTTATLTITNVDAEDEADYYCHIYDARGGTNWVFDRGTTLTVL"
  measuredResult: "0.005 µg/mL"

Data provenance is patent US20240132578A1.
